Test system: SNB-75 CNS
Assay: NCI tumour cell line growth inhibition, 48 h; in the data active = GI50 below about 0.43 µM; inactive = the rest
Outcomes: active, inactive

compound=COc1ccc2c(c1)cn1c3ccc(O)cc3nc(N)c21 discrete_label=active
compound=CC#C[C@]1(O)CC[C@H]2[C@@H]3CCC4=CC(=O)CCC4=C3[C@@H](c3ccc4c(c3)OCO4)C[C@@]21C discrete_label=inactive
compound=Cn1cccc1-c1cc(-c2cccs2)nc(N)c1C#N discrete_label=inactive
compound=COc1ccc(-c2csc(N(C(=O)N3CCN(c4cc5c(cc4F)c(=O)c(C(=O)O)cn5C4CC4)CC3)c3ccccc3)n2)cc1 discrete_label=inactive
compound=NCCOCCOCCNc1nc(Cc2ccccc2)nc(NCCCN2CCCC2=O)n1 discrete_label=inactive
compound=COc1ccc(/C(=C2/O[C@@H]([C@H]3COC(C)(C)O3)[C@H]3OC(C)(C)O[C@@H]23)c2cc(OC)c(OC)c(OC)c2)cc1O discrete_label=inactive
compound=COc1ccc(-c2nn3c(-c4cc(F)c(Cl)cc4Cl)nnc3s2)cc1 discrete_label=inactive
compound=N#Cc1cccc(CSc2ncnc3nc[nH]c23)c1 discrete_label=inactive
compound="OC(c1cc(-c2ccccc2)nc2ccc(Cl)cc12)C1CCCCN1 (centres undefined)" discrete_label=inactive

---

Test system: CAKI-1 renal
Experiment: NCI tumour cell line growth inhibition, 48 h
Collected TGI values appear next to each entry.
Experimental Endpoint: TGI

compound=O=C(CCCN1CCC2(CC1)OC(=O)N(c1ccccc1)C2=O)c1ccccc1 experimental_endpoint=TGI test_value="> 100 µM"
compound=O=C(/C=C/c1ccccc1)c1cc(Br)ccc1O experimental_endpoint=TGI test_value="31.1 µM"
compound="O=C1CC(c2ccc(O)cc2)C2(O1)C(=O)OC(C(O)CO)C2O (configuration not stated)" experimental_endpoint=TGI test_value="> 100 µM"
compound=COc1cc(/C=C/C(=O)c2ccc(NS(=O)(=O)c3cc([N+](=O)[O-])ccc3C)cc2)cc(OC)c1OC experimental_endpoint=TGI test_value="17.3 µM"
compound="Cc1nc2cccc(F)c2c(=O)n1C1CCCCNC1=O (configuration not stated)" experimental_endpoint=TGI test_value="> 10 µM"
compound=O=C(CSc1nnc(-c2ccc(N=Cc3ccc(Cl)cc3)cc2)o1)Nc1ccc(Cl)cc1Cl experimental_endpoint=TGI test_value="> 100 µM"
compound=CCOC(=O)c1cc(NS(=O)(=O)c2ccccc2)cc(C(=O)OCC)c1 experimental_endpoint=TGI test_value="> 100 µM"
compound=Cc1c(C(=O)C/C(=N\O)C(=O)Nc2cc(Cl)c(Cl)cc2Cl)[n+](=O)c2ccccc2n1[O-] experimental_endpoint=TGI test_value="> 100 µM"
compound=CC(=O)Nc1cc([As](=O)(O)O)ccc1O experimental_endpoint=TGI test_value="> 100 µM"
compound="CCCCCCCCCCC(C(=O)O)C1(C(=O)O)CCC(=O)O1 (configuration not stated)" experimental_endpoint=TGI test_value="> 100 µM"
compound="COC12OC3(C4OC41)C(C(=O)O[C@H]3CO[Si](C)(C)C(C)(C)C)C2C(=O)Oc1ccccc1 (some centres not stated)" experimental_endpoint=TGI test_value="> 100 µM"
compound=O=C(/C=C/c1ccccc1)CCN1CCN(CCC(=O)/C=C/c2ccccc2)CC1 experimental_endpoint=TGI test_value="31.9 µM"
compound=CN(C)CCNc1c2c(c(NCCN(C)C)c3[nH]ccc13)C(=O)c1ccccc1C2=O experimental_endpoint=TGI test_value="6.72 µM"
compound="COC(O)C(=O)c1c2c(cc3c1CC1(Cc4cc5c(cc4C1)CCC5)C3)CCC2 (configuration not stated)" experimental_endpoint=TGI test_value="37.4 µM"
compound=Cc1cc(N(CCC#N)CCC#N)ccc1N=Nc1cccc(C(=O)O)c1 experimental_endpoint=TGI test_value="> 100 µM"
compound=CCc1ccccc1NC(=O)C(=O)CC(=O)c1sc(Nc2ccccc2)nc1C experimental_endpoint=TGI test_value="> 100 µM"
compound=NCCn1c(=O)[nH]c(=O)[nH]c1=S experimental_endpoint=TGI test_value="> 100 µM"
compound=COc1ccc2c(c1)cn1c3ccc(O)cc3nc(N)c21 experimental_endpoint=TGI test_value="4.39 µM"
compound=C[n+]1c2ccccc2c(C(=O)Nc2ccc(S(=O)(=O)Nc3ccnn3-c3ccccc3)cc2)c2ccccc21 experimental_endpoint=TGI test_value="> 100 µM"
compound=N#Cc1c(N2CCCC2)[nH]c(=O)c(C(c2c(Cl)cccc2Cl)c2c(O)c(C#N)c(N3CCCC3)[nH]c2=O)c1O experimental_endpoint=TGI test_value="24 µM"
compound=O=C(O)/C=C\C(=O)N1C/C(=C\c2ccccc2Cl)C(=O)/C(=C/c2ccccc2Cl)C1 experimental_endpoint=TGI test_value="15 µM"
compound="CCCC(=O)OC1C(C(O)CO)OC2OC(C)(C)OC21 (configuration not stated)" experimental_endpoint=TGI test_value="> 100 µM"
compound=COc1ccc(-c2c3c(N)nc(-c4ccncc4)nc3nc3c2c(C)nn3-c2ccccc2)cc1 experimental_endpoint=TGI test_value="> 100 µM"
compound=COc1ccc(-c2ccc(/C=N/n3c(COc4ccc(Cl)cc4Cl)nn(CN4CCOCC4)c3=S)o2)c([N+](=O)[O-])c1 experimental_endpoint=TGI test_value="67.4 µM"
compound=Cc1cccc2nc3c(C(=O)NCCN(C)C)cccc3cc12 experimental_endpoint=TGI test_value="8.49 µM"
compound=COc1ccc2sc3c(NCCCN(C)C)nc4ccccc4c3c(=O)c2c1 experimental_endpoint=TGI test_value="2.95 µM"
compound=Cc1ccc(N=Nc2c(O)c(C(=O)O)cc3ccccc23)cc1C experimental_endpoint=TGI test_value="> 100 µM"
compound=O=[N+]([O-])c1ccc(-c2nnc(C34CC5CC(CC(C5)C3)C4)o2)cc1 experimental_endpoint=TGI test_value="> 100 µM"
compound="Cc1ccc(NC(=O)C(=O)C(C#N)c2ccccc2C)cc1C (configuration not stated)" experimental_endpoint=TGI test_value="> 100 µM"
compound="COC(=O)c1ccccc1CC1Cc2ccc3c(c2C1=O)CCC3 (configuration not stated)" experimental_endpoint=TGI test_value="> 100 µM"
compound=Cc1ccc(-c2cn3ccnc3c(-c3ccc(Cl)cc3)n2)cc1 experimental_endpoint=TGI test_value="2.84 µM"
compound=COc1cccc(N=Cc2cc3cc(Br)ccc3nc2Cl)c1 experimental_endpoint=TGI test_value="> 50 µM"
compound=CCOC(=O)CSc1nc(N)c2c(-c3ccc(OC)c(OC)c3)c3c(nc2n1)CCCC3 experimental_endpoint=TGI test_value="> 100 µM"
compound=O=C(c1cccc2ccccc12)C1(Br)S(=O)(=O)OCCOS1(=O)=O experimental_endpoint=TGI test_value="> 100 µM"
compound=N#C/C(=C\c1ccc(O)c(O)c1)C(N)=S experimental_endpoint=TGI test_value="> 100 µM"
compound=COc1ccc(OCc2nc3cc(C(F)(F)F)ccc3nc2-c2ccccc2)cc1 experimental_endpoint=TGI test_value="> 100 µM"
compound=CSc1ncc2c(C#N)c3sc4ccccc4n3c(=O)c2n1 experimental_endpoint=TGI test_value="> 100 µM"
compound=NC(=O)NNc1nc2ccccc2c(=O)n1NC(=O)C(=O)Nc1ccc(Cl)cc1Cl experimental_endpoint=TGI test_value="> 100 µM"
compound=CCOC(=O)c1ccc(N=C2C(=S)N(c3ccc(C(=O)OCC)cc3)C(=N)N2/N=C/c2ccccc2)cc1 experimental_endpoint=TGI test_value="42.2 µM"
compound=Cn1c(=S)[nH]c2sc3c(c2c1=O)CCSC3 experimental_endpoint=TGI test_value="> 100 µM"
compound=COc1ccc2oc(=N)c(C(=O)NCc3ccccc3)cc2c1 experimental_endpoint=TGI test_value="> 100 µM"
compound="CNC(=O)OC(C)CN1c2ccccc2Sc2ccc(Cl)cc21 (configuration not stated)" experimental_endpoint=TGI test_value="> 10 µM"
